The values you see were collected from patent US8431715B2.

Target or test system: PPARδ (Homo sapiens, UniProt Q03181)
Sequence (Q03181 whole entry, species assumed): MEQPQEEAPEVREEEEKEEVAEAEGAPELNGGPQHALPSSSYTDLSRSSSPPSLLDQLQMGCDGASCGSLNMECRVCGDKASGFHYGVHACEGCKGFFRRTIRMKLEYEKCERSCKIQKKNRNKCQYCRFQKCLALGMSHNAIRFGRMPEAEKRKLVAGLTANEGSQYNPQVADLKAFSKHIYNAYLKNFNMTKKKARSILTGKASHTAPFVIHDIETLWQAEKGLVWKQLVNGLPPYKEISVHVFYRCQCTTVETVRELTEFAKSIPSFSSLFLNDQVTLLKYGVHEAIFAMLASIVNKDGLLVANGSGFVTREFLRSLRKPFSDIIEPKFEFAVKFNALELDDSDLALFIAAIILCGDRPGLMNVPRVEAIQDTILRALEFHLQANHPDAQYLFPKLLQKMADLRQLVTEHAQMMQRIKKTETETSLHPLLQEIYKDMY
Test method notes: Transfection assay (luciferase reporter) in CV-1 cells, PPARδ
Assay type: cell-based
Parameters: Full length PPARs plasmid DNA, reporter DNA confirming PPARs activity owing to its luciferase activity; expressed in transfected cells; host or cells: CV-1 cells
Experimental context: CV-1 cells, 24 hours treatment
Quantity: pEC50
Numbers only, as −log10 of the molar value.

Compound: Cc1cc(S[C@H](Cc2ccccc2)c2sc(-c3ccc(C(F)(F)F)cc3)nc2C)ccc1OCC(=O)O (racemic)
Target or test system: PPARδ (Homo sapiens, UniProt Q03181)
pEC50: 9.22

Attention now shifts to the item below.
Can you look up the measured pEC50 of `Cc1cc(S[C@@H](Cc2ccccc2)c2sc(-c3ccc(C(F)(F)F)cc3)nc2C)ccc1OCC(=O)O` for me? 8.29
